Tested on: SF-268 CNS
Test: NCI tumour cell line growth inhibition, 48 h
measure: GI50

Below: 3 compounds and their reported GI50.
COc1cc(NC(=O)c2ccccc2Nc2ccnc(C(F)(F)F)c2)cc(OC)c1OC = > 100 µM
Fc1ccc(-c2nn3c(COc4ccc(Cl)cc4Cl)nnc3s2)cc1Oc1ccccc1 = 29.8 µM
Cn1cc(C2=C(c3c(S(C)=O)n(C)c4ccccc34)C(=O)NC2=O)c2ccccc21 (stereo not given) = 11.7 µM

Req: Kindly indicate its recorded GI50. Item: `CNCCNc1nc2ccccc2c2c(=O)c3cccc(C)c3sc12`
Resp: 3.53 µM

Req: Return GI50 (reported value) for this compound: Fc1ccc(C2C3CCOc4c(ccc5ccccc45)C3=NN2c2ccccc2)cc1 (stereo not given)
Resp: > 77.9 µM

---

List of TGI values.
Tested on: OVCAR-8 ovarian
Experiment: NCI tumour cell line growth inhibition, 48 h

COC(=O)NC1C(C)OC(OC2C/C=C(/C)C3C=CC4C(OC5CC(OC6CC(OC7CC(O)C(O)C(C)O7)C(OC7CC(O)C(OC)C(C)O7)C(C)O6)C(O)C(C)O5)C(C)CC(C)C4C3(C)/C(O)=C3\C(=O)OC4(CC(C)C(CO)=CC4/C=C\2C)C3=O)CC1(C)[N+](=O)[O-] (configuration not stated) = 33.4 µM
CCOC(=O)C(NC(=O)c1cccc(Cl)c1)(N1CCN(c2cc3c(cc2F)c(=O)c(C(=O)O)cn3C2CC2)CC1)C(F)(F)F (configuration not stated) = 60.7 µM
c1cc2c(c(NC3=NCCN3)c1)CCCC2 = > 100 µM
Cc1nc2ccc(N)cc2[nH]c1=O = > 100 µM
COc1ccc(C(=C2C(=O)N(c3ccccc3)C(=O)C2=C(C)C)c2ccc(OC)cc2)cc1 = > 32.1 µM

Req: Retrieve TGI measured for `O=C(NNC(=O)c1ccccc1O)c1ccco1` and print it.
Resp: > 100 µM

Req: Indicate its recorded TGI; the molecule in question is Cc1ccc([N+](=O)[O-])cc1S(=O)(=O)Nc1ccc(C2=NOC(c3ccccc3O)C2)cc1 (configuration not stated)
Resp: > 100 µM

Req: Provide TGI value for the following molecule: `Cc1c2cc[n+](C)cc2c(C)c2c1oc1ccccc12`
Resp: 29.8 µM

Req: Using the record for CSc1nc(Br)nc2ncn(C3CC(Oc4ccc(C)cc4)C(COc4ccc(C)cc4)O3)c12 (configuration not stated) , state its measured TGI.
Resp: > 100 µM

Req: Identify TGI associated with the molecule `Cc1cc(C#Cc2ccccc2)ccc1-n1c(/C=C/c2cc(O)ccc2O)nc2ccccc2c1=O`
Resp: 5.4 µM

Req: # return recorded TGI for entry `C[N+](C)(C)CCOP(=O)([O-])OCCNC(=O)c1ccc2ccccc2c1`
Resp: > 100 µM

Req: Report TGI for `CCCc1n(Cc2ccc3ccccc3n2)cc[n+]1Cc1ccc2ccccc2n1`
Resp: 12.3 µM

Req: Using the record for `COc1cc([N+](=O)[O-])ccc1NC(=O)c1cccc([N+](=O)[O-])c1O` , state its measured TGI.
Resp: > 100 µM

Req: Tell me measured TGI for Nc1nc2ncn(CC(O)COC(=O)c3ccccc3)c2c(=O)[nH]1 (configuration not stated) please.
Resp: > 100 µM

Req: Give reported TGI value for `c1ccc2c3nnc(c2c1)SCCCSc1nnc(c2ccccc12)SCCCS3`
Resp: > 100 µM

---

# TGI per entry
Tested on: HCT-116 colon
Assay: NCI tumour cell line growth inhibition, 48 h
Return type: number; implicit unit µM.

COC(=O)/C=C(\C)CC/C=C(\C)CCC(O)C(C)(C)O (centres undefined) = 44.9

Now consider a different molecule.
Req: Query TGI for `COc1ccc2nc3cc(Cl)ccc3c(Nc3cc(C(C)C)c(O)cc3C)c2c1`
Resp: 2.95

---

System: OVCAR-5 ovarian
Assay: NCI tumour cell line growth inhibition, 48 h
measure: TGI (µM)
Answer with a number only, understood to be in µM.

Study these solved cases before continuing.
CS(=O)(=O)OCCN(CCOS(C)(=O)=O)c1ccc(/C=N/Nc2ncnc3nc[nH]c23)cc1 = 51.4
N#CC1=C(N)OC(c2cccc([N+](=O)[O-])c2)C1(C#N)C#N (configuration not stated) = 42.7

Req: Provide one value: measured TGI of `O=C1C(Br)=CC2(C=C1Br)CCNc1c(O)c3c4c(c12)=NCCC=4C=N3`
Resp: 1.28

Req: Return value of TGI for input OCCCCCCCCCCCOc1ccc(C2OCC3(CC=CCC3)CO2)cc1 (configuration not stated) , no commentary.
Resp: 46.3

Req: Return reported TGI. Input compound: CC(C)COC(c1ccc2c(c1)OCO2)C(C)Br (configuration not stated)
Resp: 49.3

---

System: MCF7 breast
Assay: NCI tumour cell line growth inhibition, 48 h; in the data active means GI50 below about 0.43 µM; inactive means the rest
Choose one outcome from this list and give only that: label 1 = active, label 0 = inactive

Known results for molecules:
CC[C@@]1(O)C(=O)NCc2c1cc1n(c2=O)Cc2cc3c(NC(C)=O)cccc3nc2-1 = label 0
N#Cc1c(N)c(C#N)c2c(c1-c1ccc(Cl)cc1)COc1ccc(F)cc1-2 = label 0
CCOC(=O)c1cc(-c2ccccc2)[nH]c1N/N=C/c1c(Cl)cccc1Cl = label 0
O=C(O)c1cn(C2CC2)c2cc(N3CCN(Cc4ccc5ccccc5c4O)CC3)c(F)cc2c1=O = label 0
O=C1NC(=O)C(c2c[nH]c3ccccc23)=C1c1ccccc1 = label 0

Req: Would you mind telling me which call this test gave `CN1CCN(c2ccc(Nc3ncc4cc5n(c4n3)C3(CCCCC3)CNC5=O)nc2)CC1` ?
Resp: label 1

Req: Dear colleague, could you share the recorded outcome for `O=C1N=C(Nc2nc(-c3csc(NC4=NC(=O)/C(=C\c5ccc(Cl)cc5)S4)n3)cs2)S/C1=C/c1ccc(Cl)cc1` when you have a moment?
Resp: label 0

Req: Answer briefly: the call reported for `COc1cc(NC(=O)c2ccccc2Nc2ccnc(C(F)(F)F)c2)cc(OC)c1OC` in this assay.
Resp: label 0

Req: Record lookup: outcome of this test for Cc1cc2c(cc1Cl)SC(C(=O)c1ccc(Cl)c(Cl)c1)NS2(=O)=O (centres undefined) ?
Resp: label 0

Req: Entry CNCCN(C)Cc1cn[nH]c1-c1ccc(OC2CC(OCCC3CCOCC3)C2)cc1 (centres undefined) : call = ?
Resp: label 0

Req: Assay outcome for CC1COCCN1CC#CCOC(=O)c1cc2ccccc2oc1=O (centres undefined) : what was it?
Resp: label 0

Req: For this molecule, state the assay outcome: `Cc1cc(N)cc(C)c1-c1c(Br)cc(N)cc1Br`
Resp: label 0

Req: # outcome recorded in this test, key = `CC/C(=N/N=C(N)N)c1ccc(NC(=O)Nc2ccc(/C(CC)=N/N=C(N)N)cc2)cc1`
Resp: label 0

Req: Record lookup: outcome of this test for COC1=CC2CCN3Cc4cc5c(cc4C(C1O)C23)OCC5 (centres undefined) ?
Resp: label 0

---

Test system: HOP-92 NSCLC
Experiment: NCI tumour cell line growth inhibition, 48 h
In this section we review reported TGI values for a set of molecules.
Answer format: numeric, µM implied, no suffix.

For orientation, consider the following solved cases.
Cc1ccc(/C=C2\NC(=S)N(CN3CCCCC3)C2=O)cc1 = 94.4
O=C(c1ccco1)c1c(C(F)(F)F)n([O-])c2ccc(F)cc2[n+]1=O = 2.55
N[C@@H](CSSC[C@H](N)C(=O)N1CCn2cc(-c3ccccc3)nc2[C@@H]1CC1CCCCC1)C(=O)N1CCn2cc(-c3ccccc3)nc2[C@@H]1CC1CCCCC1 = 5.8
C#Cc1ccc(-n2c(/C=C/c3ccc4ccccc4c3)nc3ncccc3c2=O)cc1 = 6.89
CCc1ccc2c(c1)C(=O)c1c-2n(CCCN)c(=O)c2cc([N+](=O)[O-])ccc12 = 4.06
FC(F)(F)c1ccc(NCc2nc3ccccc3[nH]2)cc1 = 36.8
COc1cc(-c2nn(-c3cccc(NC(=O)CCN4CCN(C)CC4)c3)cc2-c2ccncc2)ccc1Cl = 6.42
N#Cc1cn(-c2c3ccccc3nc3ccccc23)c(=O)[nH]c1=O = 23.1

# ---- query molecule ----
Req: Let me know recorded TGI for COC(=O)c1ccccc1C1=C([N+](=O)[O-])C(c2cccc(Br)c2)C(C#N)=C(N)O1 (stereo not given) , thanks.
Resp: 62.1

---

Tested on: HOP-92 NSCLC
Test: NCI tumour cell line growth inhibition, 48 h
Catalogue of molecules with associated log10 TGI
Could you please treat all values as log10 of TGI in µM?

Examples with their reported log10 TGI follow.
O=C1NC(=N[C@H](CO)c2ccccc2)S/C1=C\c1ccc2ncccc2c1 = 1.27
CN1CCN(c2ccc(Nc3ncc4cc5n(c4n3)C3(CCCCC3)CNC5=O)nc2)CC1 = 1.26
N=C(N)SCc1cccc([N+](=O)[O-])c1 = 1.78
Cc1cc(N)cc(C)c1-c1c(Br)cc(N)cc1Br = 0.97
COc1cc2c(cc1OC)C(=O)/C(=C/c1cc(Cl)cc(Cl)c1)C2 = 2.00
COc1cc(Cn2c(SCC(=O)Nc3ccc(Cl)cc3)nc3ccccc3c2=O)cc(OC)c1OC = 0.96
CC(C)COC(c1ccc2c(c1)OCO2)C(C)Br (stereo not drawn) = 1.84
CC1(C=O)CCC23COC4(CCC5C6(C)CCC(OC7OCC(OC8OC(CO)C(O)C(OC9OC(CO)C(O)C(O)C9O)C8OC8OCC(O)C(O)C8O)C(O)C7OC7OC(CO)C(O)C(O)C7O)C(C)(C)C6CCC5(C)C4(C)CC2O)C3C1 (stereo not drawn) = 0.18

Req: Given `O=C1/C(=C/c2ccccc2[N+](=O)[O-])COc2ccc(O)c(O)c21` , respond with its log10 TGI.
Resp: 0.46

Req: Recall and state the measured log10 TGI for `Oc1cccc(-c2nc(-c3ccccc3)[nH]c2-c2ccncc2)c1` .
Resp: 1.38

Req: Note down log10 TGI recorded for `CNCCNc1nc2ccccc2c2c(=O)c3cccc(C)c3sc12`
Resp: 1.03

Req: Answer with reported log10 TGI of COC(=O)NC1C(C)OC(OC2C/C=C(/C)C3C=CC4C(OC5CC(OC6CC(OC7CC(O)C(O)C(C)O7)C(OC7CC(O)C(OC)C(C)O7)C(C)O6)C(O)C(C)O5)C(C)CC(C)C4C3(C)/C(O)=C3\C(=O)OC4(CC(C)C(CO)=CC4/C=C\2C)C3=O)CC1(C)[N+](=O)[O-] (stereo not drawn)
Resp: 1.51
